- Tested on: DU-145
- Measurement Notes: Cytotoxicity against human DU145 cells after 72 hrs by MTT assay
- Format: functional, cell-based
- Run Conditions: du-145; read-out: IC50
pIC50: −log10 of the molar value.
As shown below, each of these compounds has a reported pIC50 value.

- Line Notation: "COC(=O)[C@@H]1Cc2c([nH]c3ccccc23)[C@H](c2ccc(OC)cc2)N1c1nc(N2CCN(C)CC2)nc(N2CCN(C)CC2)n1"
  pIC50: 4.99
- Line Notation: "COC(=O)[C@@H]1Cc2c([nH]c3ccccc23)[C@@H](c2ccc(OC)cc2)N1c1nc(N2CCN(C)CC2)nc(N2CCN(C)CC2)n1"
  pIC50: 5.17
